B1: tRNA (parent)
chain: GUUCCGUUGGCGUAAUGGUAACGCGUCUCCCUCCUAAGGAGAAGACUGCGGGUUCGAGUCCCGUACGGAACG

Variants of: B1
assay-text: yeast fitness relative to wild type (ratio to wild type); higher = fitter; tRNA-Arg(CCU), competitive growth, 37 C, YPD
Variants at the floor of the assay were thinned out.
Would you please tag the item true when its yeast fitness is 0.6 or above, and false when it is below?

Here's what some known entries look like.
C5U A20C C34A U64C ... false
C31U C60G A70G ... true
U3A C5G C11U C24A C30U A70G ... false
C11U C30A G39A U47A G63C ... false
C22A C60G ... false
A43U G56A A70U ... true
A21C C22U C31U C33U ... false
U35A A42C ... true
G12A C29U G56C ... false
G6C C46G A70C ... false

Data request: Threshold query (yeast fitness >= 0.6) on U32C A42U
Data returned: true

Data request: Threshold query (yeast fitness >= 0.6) on A20G A36C C49G C61G C62G
Data returned: false

Data request: Threshold query (yeast fitness >= 0.6) on U54C A57G G63C A65C
Data returned: false

Data request: Threshold query (yeast fitness >= 0.6) on C4U A20C C34G A36G A65U
Data returned: false

Data request: Threshold query (yeast fitness >= 0.6) on U8G A37U C66U
Data returned: false

Data request: Threshold query (yeast fitness >= 0.6) on C5U C33U C62A
Data returned: false

Data request: Threshold query (yeast fitness >= 0.6) on C27U A45C G63A
Data returned: true

Data request: Threshold query (yeast fitness >= 0.6) on C5A A14G
Data returned: true

Data request: Threshold query (yeast fitness >= 0.6) on G12C U19A C27G A65C G68A
Data returned: false

Data request: Threshold query (yeast fitness >= 0.6) on C5G G17C G50A A65U
Data returned: false
